- Measurement Target: canine TRPM8 (Canis lupus familiaris, UniProt Q1A7N1)
- Sequence (Q1A7N1 1-1104): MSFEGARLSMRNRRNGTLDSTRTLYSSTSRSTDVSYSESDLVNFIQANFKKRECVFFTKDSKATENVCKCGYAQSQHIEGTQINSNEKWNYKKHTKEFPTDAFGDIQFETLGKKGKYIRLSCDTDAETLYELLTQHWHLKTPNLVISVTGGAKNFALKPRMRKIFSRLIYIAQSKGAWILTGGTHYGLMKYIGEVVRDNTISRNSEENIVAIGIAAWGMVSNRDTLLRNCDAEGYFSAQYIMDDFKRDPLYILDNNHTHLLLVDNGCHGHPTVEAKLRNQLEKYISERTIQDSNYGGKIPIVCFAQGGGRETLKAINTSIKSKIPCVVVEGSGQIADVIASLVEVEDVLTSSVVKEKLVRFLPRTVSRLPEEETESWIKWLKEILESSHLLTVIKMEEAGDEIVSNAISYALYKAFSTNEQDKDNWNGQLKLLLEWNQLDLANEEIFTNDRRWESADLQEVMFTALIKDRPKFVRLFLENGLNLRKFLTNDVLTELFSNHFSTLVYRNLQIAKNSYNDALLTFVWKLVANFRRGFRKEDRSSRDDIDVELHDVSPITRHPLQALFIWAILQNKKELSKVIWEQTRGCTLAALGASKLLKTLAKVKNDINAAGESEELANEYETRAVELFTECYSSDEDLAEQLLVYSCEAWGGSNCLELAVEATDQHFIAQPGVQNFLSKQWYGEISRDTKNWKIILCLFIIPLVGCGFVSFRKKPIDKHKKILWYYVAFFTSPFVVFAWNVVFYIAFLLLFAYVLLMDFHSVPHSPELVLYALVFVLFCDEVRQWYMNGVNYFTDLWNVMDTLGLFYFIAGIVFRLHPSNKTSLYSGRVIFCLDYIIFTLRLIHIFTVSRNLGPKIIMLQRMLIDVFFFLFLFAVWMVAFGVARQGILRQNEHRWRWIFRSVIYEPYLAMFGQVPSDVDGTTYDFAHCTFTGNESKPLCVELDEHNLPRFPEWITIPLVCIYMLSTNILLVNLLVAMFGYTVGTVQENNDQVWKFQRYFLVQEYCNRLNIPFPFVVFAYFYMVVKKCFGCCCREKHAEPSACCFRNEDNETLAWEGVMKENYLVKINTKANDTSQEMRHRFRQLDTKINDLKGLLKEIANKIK
- Assay Comment: In Vitro Canine TRPM8 Functional Assay (Ca2+ fluorescence, icilin activation)
- Format: cell-based
- Experimental Conditions: compound at 0.2 μM; canine TRPM8, icilin activation; read-out: % Inh @ 0.2
Here the recorded inhibition at 0.2 µM is given for each entry.

| Molecule | Result Unit | inhibition at 0.2 µM |
| --- | --- | --- |
| CS(=O)(=O)Nc1ccc(S(=O)(=O)N(Cc2ccc(F)c(C(F)(F)F)c2)c2sc3ccccc3c2Br)cc1 [Compound 660] | % | 100 |
| CCCCN(c1sc2ccccc2c1C)S(=O)(=O)c1ccc(C(=O)O)cc1F [Compound 593] | % | 101 |
| O=S1(=O)C(N(CCC2CC2)S(=O)(=O)c2ccccc2)=C(N2CCNCC2)c2ccccc21 [Compound 647] | % | 21 |
| CCCCN(c1cc2ccccc2s1)S(=O)(=O)NC [Compound 532] | % | 19 |
| CCCCN(c1sc2ccccc2c1NC(C)=O)S(=O)(=O)c1ccc(C(=O)OC)cc1 [Compound 500] | % | 15 |
| COC(=O)c1ccc(S(=O)(=O)N(Cc2ccc(F)c(C(F)(F)F)c2)c2sc3ccccc3c2C(C)=O)cc1 [Compound 313] | % | 102 |
| Cc1c(N(Cc2ccc(SC(F)(F)F)cc2)S(=O)(=O)c2ccc(C(=O)O)cc2)sc2ccccc12 [Compound 526] | % | 102 |
| Cc1c(N(CCCC(F)(F)F)S(=O)(=O)CCC(=O)O)sc2ccccc12 [Compound 605] | % | 18 |
| COC(=O)c1ccc(S(=O)(=O)N(CCC2CC2)c2sc3ccccc3c2C(C)C)cc1 [Compound 564] | % | 57.7 |
| Cc1c(N(CCCC(F)(F)F)S(=O)(=O)CC(F)(F)F)sc2ccccc12 [Compound 672] | % | 75.3 |
| O=C1CC[C@@H](CN(c2sc3ccccc3c2Br)S(=O)(=O)c2ccccc2)N1 [Compound 259] | % | 24 |
| CCN(c1sc2ccccc2c1C)S(=O)(=O)c1ccc(C(=O)OC)cc1 [Compound 402] | % | 38 |
| CC(C)c1c(N(Cc2ccc(F)c(C(F)(F)F)c2)S(=O)(=O)c2ccc(C(=O)O)cc2)sc2ccccc12 [Compound 566] | % | 104 |
| Cc1c(N(Cc2ccc(F)c(C(F)(F)F)c2)S(=O)(=O)CCO)sc2ccccc12 [Compound 793] | % | 102 |
| CC(=O)C1=C(N(Cc2ccc(F)c(C(F)(F)F)c2)S(=O)(=O)c2ccccc2)S(=O)(=O)c2ccccc21 [Compound 460] | % | 102 |
| CC(O)c1c(N(Cc2ccc(F)c(F)c2)S(=O)(=O)c2ccccc2)sc2ccccc12 (stereo not shown) [Compound 222] | % | 95 |
